- targetEntity: T1, TREM2 on human iPSC macrophages (human, UniProt Q9NZC2 19-230)
- T1 sequence (looked up): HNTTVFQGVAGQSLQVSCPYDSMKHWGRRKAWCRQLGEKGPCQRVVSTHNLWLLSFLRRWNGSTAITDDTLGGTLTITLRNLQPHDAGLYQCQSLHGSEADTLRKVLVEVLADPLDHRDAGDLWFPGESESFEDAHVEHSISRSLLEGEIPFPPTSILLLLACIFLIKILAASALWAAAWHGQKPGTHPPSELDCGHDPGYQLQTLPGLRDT
- experiment: cell-based or functional assay
*1 amine or outer side, *2 acyl side, *3 side chain or, on linkers, in order; H or OH if unused. Bridges are numbered along the chain shown (N, C = ends). Where no end group is shown, it is not given here. TATA = O=C(CC[*:1])N1CN(C(=O)CC[*:2])CN(C(=O)CC[*:3])C1
reportedEndpoint: pSYK (µM)
# value in µM; strip the unit string

Here's what some known entries look like.
binder: ACSYYCFWPFQSCA-NH2 (linker 2-6-13 via TATA; N-terminus assumed; SMILES C[C@H](N)C(=O)N[C@H]1CSCCC(=O)N2CN3CN(C2)C(=O)CCSC[C@H](NC(=O)[C@H](Cc2ccc(O)cc2)NC(=O)[C@H](Cc2ccc(O)cc2)NC(=O)[C@H](CO)NC1=O)C(=O)N[C@@H](Cc1ccccc1)C(=O)N[C@@H](Cc1c[nH]c2ccccc12)C(=O)N1CCC[C@H]1C(=O)N[C@@H](Cc1ccccc1)C(=O)N[C@@H](CCC(N)=O)C(=O)N[C@@H](CO)C(=O)N[C@H](C(=O)N[C@@H](C)C(N)=O)CSCCC3=O) [BCY19766]
numericValue: 35.2
--
binder: ACTNYCFWPFYSCA (linker 2-6-13 via TATA) [BCY19781]
numericValue: 34.1
--
binder: ACSEYCFWPFWQCA (linker 2-6-13 via TATA) [BCY19778]
numericValue: 4.6

# query: pSYK (µM) of entry CSEYCFWPXYHC (N-terminal acetyl (Ac); CiSEYCiiFWP[HPhe]YHCiii; Ci, Cii, Ciii on TATA scaffold) [BCY19667]
7.4

# query: pSYK (µM) of entry ACSEYCFWPFQYCA (linker 2-6-13 via TATA) [BCY19784]
1.8

# credit: patent US20220296726A1
